Data origin: PubChem BioAssay (NCI)

# Test system: RPMI-8226 leukemia
# PROCEDURE SUMMARY: NCI tumour cell line growth inhibition, 48 h; in the data active = GI50 below about 0.43 µM; inactive = the rest
Entry note: the call must match one of active, inactive

Req: Assay outcome for CC(=O)[O][Hg][CH2]C1(C)COC(C)([CH2][Hg][O]C(C)=O)CO1 (configuration not stated) : what was it?
Resp: inactive

Req: Further, for CC1=C/C(O)CC(=O)Cc2nc(co2)C(=O)N2CCC=C2C(=O)OC(C(C)C)C(C)/C=C\C(=O)NC/C=C\1 (configuration not stated) ?
Resp: inactive

Req: Further, for `CC(C)c1ccc(/C=N/N=C(N)N)cc1` ?
Resp: inactive

Req: Further, for `CCCC(CCC)Oc1ccc(CCCC2=C(O)c3ccccc3C(=O)C2=O)cc1` ?
Resp: inactive

Req: Further, for CNC12C3C4C1C1C2C3C41C(=O)N[C@H](C(=O)N(C)[C@H](C[C@@H](OC(C)=O)c1nc(C(=O)N[C@@H](Cc2ccccc2)C[C@H](C)C(=O)OC)cs1)C(C)C)C1CC1 (some centres not stated) ?
Resp: active

Req: Further, for CNC(C)[C@H]1CCC2C3CCC4C[C@@H](N(C)C(=O)c5ccccc5)CC[C@]4(C)C3CC[C@@]21C (some centres not stated) ?
Resp: active

Req: Further, for `COC(=O)c1ccc(NC(N)=NCC(C)(C)COc2ccc(C(F)(F)F)cc2)nc1` ?
Resp: inactive

----------
# Test system: MCF7 breast
# PROCEDURE SUMMARY: NCI tumour cell line growth inhibition, 48 h
MEASURED METRIC: TGI

Req: Value lookup for TGI; key = `N#Cc1nc(-c2ccc(-c3nc(C#N)c(N)o3)cc2)oc1N`
Resp: > 10 µM

Req: Further, for `Cc1cccc(/C=C2/C(=O)Nc3ccccc32)n1` ?
Resp: 30.3 µM

Req: Further, for CNC12C3C4C1C1C2C3C41C(=O)N[C@H](C(=O)N(C)[C@H](C[C@@H](OC(C)=O)c1nc(C(=O)N[C@@H](Cc2ccccc2)C[C@H](C)C(=O)OC)cs1)C(C)C)C1CC1 (stereo partly drawn) ?
Resp: > 15 µM

----------
Exercise: state measured TGI for each of the molecules provided.
# System: SNB-19 CNS
# PROCEDURE SUMMARY: NCI tumour cell line growth inhibition, 48 h

Req: Please provide the recorded TGI for `Cc1c(-c2ccccc2)c(C#N)c2nnn(C)c(=O)n12` , tested on SNB-19 CNS.
Resp: > 100 µM

Req: Further, for `Clc1ccc(-c2nc(C(Cl)Cl)nc3cc(-c4ccccc4)nn23)cc1` ?
Resp: > 50 µM

Req: Further, for C=CCN(N=O)C(=O)N(CCCCC(NC(C)=O)C(=O)NCc1ccccc1)Cc1ccccc1 (stereo unspecified) ?
Resp: > 100 µM

Req: Further, for CC1(C)CC2C(/C1=N/O)C1(C)CCCC2(C)C1O (stereo unspecified) ?
Resp: > 100 µM

Req: Further, for `O=C1Nc2ccccc2/C1=N/N1C(=O)/C(=C/c2ccccc2S)N=C1c1ccccc1` ?
Resp: > 100 µM

Req: Further, for `Cc1ccc(S(=O)(=O)NC(=O)NCC(N)=O)cc1` ?
Resp: > 100 µM

----------
# Tested on: SNB-19 CNS
# PROCEDURE SUMMARY: NCI tumour cell line growth inhibition, 48 h
MEASURED METRIC: GI50

Req: Please provide the recorded GI50 for CNC(C)[C@H]1CCC2C3CCC4C[C@@H](N(C)C(=O)c5ccccc5)CC[C@]4(C)C3CC[C@@]21C (stereo partly drawn) , tested on SNB-19 CNS.
Resp: 2.88 µM

Req: Further, for `CCOc1ccc(NC(=O)c2cc3ccccc3cc2O)cc1` ?
Resp: 41.2 µM

Req: Further, for `NC(=S)N/N=C/c1ccc(OC(=O)COc2ccccc2)cn1` ?
Resp: 28.5 µM
